system: ACHN; experiment: NCI tumour cell line growth inhibition, 48 h
The source made the active and inactive calls. Cut-off read from the data, not from the text of the source: active = GI50 up to about 1.1 µM and inactive = higher.
In this exercise, the only acceptable responses are true for active, false for inactive

Prompt line: Kindly provide the recorded test outcome for the following compound: Cc1ccc(S(=O)(=O)NC(=O)NCC(=O)O)cc1
Response line: false

Prompt line: How was Fc1ccc(C(OCCN2CCN(CCCCl)CC2)c2ccc(F)cc2)cc1 classified in this test?
Response line: false

Prompt line: Could you please tell me the result logged for CCCCCCCCCCCCCCCC(=O)OCC(C[As](=O)(O)O)OC(=O)CCCCCCCCCCCCCCC (configuration not stated) in this assay?
Response line: false

Prompt line: I would be grateful if you could indicate the recorded call for O=c1[nH]c(=O)n(COCc2ccccc2)c2ccsc12 .
Response line: false

Prompt line: // outcome(item) with item = OC(c1cccs1)c1cc2ccccc2s1 (configuration not stated)
Response line: false

Prompt line: GET /call?item= O=c1ssc2c1Nc1c(ssc1=O)S2 returns the recorded outcome of this test.
Response line: false

Prompt line: Field: outcome | Entry: CCC(c1nc2ccccc2c(=O)n1NC(=O)C(C)(C)C)C1(O)CCCCC1 (configuration not stated)
Response line: false

Reference source: ChEMBL document CHEMBL1201862
